System: Mycobacterium tuberculosis
Test: Antimycobacterial activity against drug-succeptible Mycobacterium tuberculosis CF73 incubated for 7 days measured 24 hrs post incubation by resazurin microtiter assay
Format: functional
Recorded MIC90 by entry
Expressed in µg/mL, but write only the number.

- molecule: "Clc1ccc2c(c1)N(CCC1CCCCN1)c1ccccc1S2 (stereo unspecified)"
  test.readout: "MIC90"
  unit.of.measure: "µg/mL"
  numeric.readout: 11
- molecule: "CO[C@H]1/C=C/O[C@@]2(C)Oc3c(C)c(O)c4c(O)c(c(/C=N/N5CCN(C)CC5)c(O)c4c3C2=O)NC(=O)/C(C)=C\\C=C\\[C@H](C)[C@H](O)[C@@H](C)[C@@H](O)[C@@H](C)[C@H](OC(C)=O)[C@@H]1C [RIFAMPIN]"
  test.readout: "MIC90"
  unit.of.measure: "µg/mL"
  numeric.readout: 8
- molecule: "c1ccc2c(c1)Sc1ccccc1N2CCC1CCCCN1 (stereo unspecified)"
  test.readout: "MIC90"
  unit.of.measure: "µg/mL"
  numeric.readout: 47

Missing value: MIC90, Mycobacterium tuberculosis, entry c1ccc2c(c1)ccn2CCC1CCCCN1 (stereo unspecified) . Fill in?
1

# iterate: NNC(=O)c1ccncc1 [ISONIAZID]
0.03

# iterate: CSc1ccc2c(c1)N(CCC1CCCCN1C)c1ccccc1S2 (stereo unspecified) [THIORIDAZINE]
8

# iterate: CN1CCCCC1CCN1c2ccccc2Sc2ccc(Cl)cc21 (stereo unspecified)
16

---

Recorded MIC90 by entry
System: Mycobacterium tuberculosis
Assay: Antimycobacterial activity against drug-succeptible Mycobacterium tuberculosis CF73 incubated for 7 days measured 24 hrs post incubation by resazurin microtiter assay
Format: functional
Expressed in µg/mL, but write only the number.

- compound: "CSc1ccc2c(c1)N(CCCN1CCN(C3C4CC5CC(C4)CC3C5)CC1)c1ccccc1S2 (stereo not given)"
  assay.system: "Mycobacterium tuberculosis"
  unit.of.measure: "µg/mL"
  MIC90: 98
- compound: "CN1CCCCC1CCN1c2ccccc2Sc2ccccc21 (stereo not given)"
  assay.system: "Mycobacterium tuberculosis"
  unit.of.measure: "µg/mL"
  MIC90: 47
- compound: "CSc1ccc2c(c1)N(CCC1CCCCN1Cc1ccccc1)c1ccccc1S2 (stereo not given)"
  assay.system: "Mycobacterium tuberculosis"
  unit.of.measure: "µg/mL"
  MIC90: 37

Reported MIC90, compound CSc1ccc2c(c1)N(CCCN1CCN(C)CC1)c1ccccc1S2 : ____
27

# iterate: CN1CCCCC1CCn1c2ccccc2c2ccccc21 (stereo not given)
39

---

Assay: Selectivity index, ratio of IC50 for human MRC5 cells to MIC90 for drug-succeptible Mycobacterium tuberculosis CF73
Assay type: toxicity
Conditions: read-out: Selectivity Index
test.readout: selectivity ratio
// no unit, no text: just the number

- compound: "Clc1ccc2c(c1)N(CCC1CCCCN1)c1ccccc1S2 (centres undefined)"
  selectivity ratio: 0.9

Reported selectivity ratio, compound c1ccc2c(c1)ccn2CCC1CCCCN1 (centres undefined) : ____
15

# iterate: CSc1ccc2c(c1)N(CCC1CCCCN1C)c1ccccc1S2 (centres undefined)
1

# iterate: CN1CCCCC1CCN1c2ccccc2Sc2ccc(Cl)cc21 (centres undefined)
0.8

---

System: J774
Assay: Cytotoxicity against mouse J774 cells assessed as decrease in cell viability after 24 hrs by resazurin reduction assay
Type: cell-based
Settings: J774, 24 h
test.readout: IC50 (µg/mL)
Expressed in µg/mL, but write only the number.

- compound: "c1ccc2c(c1)ccn2CCC1CCCCN1 (centres undefined)"
  unit.of.measure: "µg/mL"
  numeric.readout: 7.3
- compound: "CN1CCCCC1CCN1c2ccccc2Sc2ccc(Cl)cc21 (centres undefined)"
  unit.of.measure: "µg/mL"
  numeric.readout: 8.4
- compound: "Clc1ccc2c(c1)N(CCC1CCCCN1)c1ccccc1S2 (centres undefined)"
  unit.of.measure: "µg/mL"
  numeric.readout: 10.7

Now, please, on to the next compound.
Reported IC50, compound CSc1ccc2c(c1)N(CCC1CCCCN1C)c1ccccc1S2 (centres undefined) : ____
4.1

The origin of these recorded values is ChEMBL document CHEMBL3992516.
